Can you tell me IC50 for the items I'm about to list?
System: HEp-2
Experiment: Cytotoxicity against H.Ep cells in the presence of 0.1 ug/mL pentostatin.
Type: functional, cell-based
Settings: Homo sapiens

Some compounds with recorded IC50:
{"columns": ["compound", "IC50"],
 "data": [
  ["Nc1nc(N)c2nnn([C@@H]3O[C@H](CO)[C@@H](O)[C@H]3O)c2n1", "> 20000 nM"],
  ["Nc1ncnc2c1nnn2[C@@H]1O[C@H](CO)[C@@H](O)[C@H]1O", "< 20 nM"],
  ["Nc1ncnc2c1nnn2[C@H]1C[C@H](O)[C@@H](CO)O1", "> 25000 nM"]
]}

HEp-2 data for Nc1nc(F)nc2c1nnn2C1O[C@H](CO)[C@@H](O)[C@H]1O (some centres undefined) ; its IC50: 2000 nM

* * *

Test system: HEp-2
Assay: Cytotoxicity against H.Ep cells
Assay type: functional, cell-based
Conditions: Homo sapiens
Strictly below 10 µM in IC50: class 1. Otherwise: class 0.

Solved entries (count: 3):
{"columns": ["compound", "label"],
 "data": [
  ["CS(=O)(=O)c1nc(N)c2nnn(C3O[C@H](CO)[C@@H](O)[C@H]3O)c2n1 (stereo not given in full)", "class 0"],
  ["Nc1ncnc2c1nnn2[C@@H]1O[C@H](CO)[C@@H](O)[C@H]1O", "class 1"],
  ["CCOc1nc(N)c2nnn(C3O[C@H](CO)[C@@H](O)[C@H]3O)c2n1 (stereo not given in full)", "class 0"]
]}

Kindly review the next compound as well.
Task: Given Nc1nc(O)nc2nn(C3O[C@H](CO)[C@@H](O)[C@H]3O)nc12 (stereo not given in full) , is recorded IC50 strictly lower than 10 µM?
Result: class 0

* * *

Tested on: HEp-2
Experiment: Cytotoxicity against H.Ep cells
Type: functional, cell-based
Conditions: Homo sapiens
API: label(entry) gives T if the entry's IC50 is strictly smaller than 10 µM; on equality or larger values it gives F.

{"columns": ["compound", "label"],
 "data": [
  ["CS(=O)(=O)c1nc(N)c2nn(C3O[C@H](CO)[C@@H](O)[C@H]3O)nc2n1 (stereo partly specified)", "F"]
]}

Task: Given the entry Nc1nc(F)nc2nn(C3O[C@H](CO)[C@@H](O)[C@H]3O)nc12 (stereo partly specified) , would its reported IC50 be below 10 µM?
Result: F

Task: IC50 strictly < 10 µM for this compound? Nc1nc(N)c2nn(C3O[C@H](CO)[C@@H](O)[C@H]3O)nc2n1 (stereo partly specified)
Result: F

Task: Does the reported IC50 of the following compound sit strictly below 10 µM? Nc1nc(O)c2nnn(C3O[C@H](CO)[C@@H](O)[C@H]3O)c2n1 (stereo partly specified)
Result: T

Task: Answer whether the compound Nc1nc(O)c2[nH]nnc2n1 has IC50 strictly less than 10 µM
Result: T

Task: Here's an entry: Nc1nc(F)nc2c1nnn2C1O[C@H](CO)[C@@H](O)[C@H]1O (stereo partly specified) . Is its IC50 below 10 µM?
Result: T

Task: Below 10 µM on IC50? Entry Nc1nc(N)c2nnn([C@@H]3O[C@H](CO)[C@@H](O)[C@H]3O)c2n1
Result: T

* * *

System: HEp-2
Assay: Cytotoxicity against H.Ep cells
Format: functional, cell-based
Details: Homo sapiens
parameter: IC50 (µM)
Answers are plain numbers, in µM.

Answered cases to consult:
{"columns": ["compound", "system name", "result unit", "readout value"],
 "data": [
  ["Nc1ncnc2c1nnn2[C@H]1C[C@H](O)[C@@H](CO)O1", "HEp-2", "µM", 10],
  ["Nc1nc(F)nc2c1nnn2[C@H]1C[C@H](O)[C@@H](CO)O1", "HEp-2", "µM", 70]
]}

The compound identified as CSc1nc(N)c2nn(C3O[C@H](CO)[C@@H](O)[C@H]3O)nc2n1 (some centres undefined) registered its IC50 at 25
